# System Name: Human GPR120 short form (Homo sapiens, UniProt Q5NUL3)
# Construct: expressed in transfected cells
# Sequence (Q5NUL3 1-361): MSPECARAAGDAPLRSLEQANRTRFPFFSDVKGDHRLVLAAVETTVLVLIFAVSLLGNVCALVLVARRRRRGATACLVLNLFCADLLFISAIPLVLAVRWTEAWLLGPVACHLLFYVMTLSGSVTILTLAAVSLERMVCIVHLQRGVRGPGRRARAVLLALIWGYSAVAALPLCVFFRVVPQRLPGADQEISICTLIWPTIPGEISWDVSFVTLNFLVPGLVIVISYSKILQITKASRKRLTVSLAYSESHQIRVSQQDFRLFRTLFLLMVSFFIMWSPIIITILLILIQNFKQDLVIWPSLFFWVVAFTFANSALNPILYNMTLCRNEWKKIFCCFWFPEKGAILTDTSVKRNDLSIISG
# Protocol Text: Human GPR120 calcium flux assay (FLIPR), Procedure Calcium B
# Assay type: cell-based
# Experimental Context: HEK-293 cells expressing human GPR120 short form, 4200 cells/well; read-out: GPR120 Ca2+ Assay B EC50
Value Type: EC50 (nM)

Some compounds with known EC50 results, for comparison:
# Compound, Units Label, EC50
records = [
    ("Cc1ccc(-c2snc(Cl)c2COc2ccc(CCC(=O)O)c(C(C)F)c2)cc1 (stereo not drawn)", "nM", 755),
    ("Cc1ccc(-c2snc(Cl)c2COc2ccc(CCC(=O)O)cc2)c(C)c1", "nM", 550),
]

[a] O=C(O)CCc1ccc(OCc2c(Cl)nsc2-c2ccccc2Cl)cc1C(F)(F)F
[b] O=C(O)CCc1ccc(OCc2c(-c3ccc(Cl)cc3)nsc2C(F)(F)F)cc1C(F)F
[c] CC1CC=C(c2snc(Cl)c2COc2ccc(CCC(=O)O)c(C(F)(F)F)c2)CC1 (stereo not drawn)
[d] CCc1ccc(-c2nsc(C(F)(F)F)c2COc2c(F)cc(CCC(=O)O)cc2F)nc1
Task item: Output the entries ranked by EC50 from maximum down to minimum. Returns: the labels arranged in the requested order.
Reply: b, c, d, a

Values compiled from patent US9067898B1.
